Study System: UniProt Q9NR96
Sequence (Q9NR96 26-1032): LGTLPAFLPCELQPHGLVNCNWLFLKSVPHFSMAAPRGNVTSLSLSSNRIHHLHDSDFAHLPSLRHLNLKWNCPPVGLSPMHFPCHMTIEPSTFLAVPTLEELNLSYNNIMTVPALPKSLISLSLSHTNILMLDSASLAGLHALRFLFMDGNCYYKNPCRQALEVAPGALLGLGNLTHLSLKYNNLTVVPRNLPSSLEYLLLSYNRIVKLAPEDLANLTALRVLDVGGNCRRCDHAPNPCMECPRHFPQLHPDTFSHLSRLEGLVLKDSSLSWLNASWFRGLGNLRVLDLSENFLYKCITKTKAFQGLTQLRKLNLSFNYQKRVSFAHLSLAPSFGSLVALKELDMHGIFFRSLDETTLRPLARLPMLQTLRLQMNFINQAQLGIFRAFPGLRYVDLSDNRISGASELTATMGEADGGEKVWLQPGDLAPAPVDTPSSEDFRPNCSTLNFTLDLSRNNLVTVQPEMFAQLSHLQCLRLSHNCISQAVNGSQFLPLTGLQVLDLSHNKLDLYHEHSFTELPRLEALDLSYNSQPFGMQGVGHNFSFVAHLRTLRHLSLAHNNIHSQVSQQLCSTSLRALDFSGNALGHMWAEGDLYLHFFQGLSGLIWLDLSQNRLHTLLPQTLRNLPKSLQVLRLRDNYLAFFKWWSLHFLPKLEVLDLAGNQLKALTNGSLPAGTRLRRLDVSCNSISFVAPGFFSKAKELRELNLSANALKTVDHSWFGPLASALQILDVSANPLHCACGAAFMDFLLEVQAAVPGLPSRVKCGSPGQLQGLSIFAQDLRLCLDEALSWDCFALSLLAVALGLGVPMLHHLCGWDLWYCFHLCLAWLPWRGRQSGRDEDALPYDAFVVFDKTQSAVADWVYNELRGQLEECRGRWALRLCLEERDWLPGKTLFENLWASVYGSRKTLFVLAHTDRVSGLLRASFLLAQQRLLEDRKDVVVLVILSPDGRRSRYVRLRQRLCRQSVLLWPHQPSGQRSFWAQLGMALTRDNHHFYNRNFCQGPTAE
Protocol: TLR9 inhibition reporter assay (HEK-Blue cells, SEAP reporter, ODN2006 stimulation);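 note: compounds tested over 0.05 nM to 50 µM, 22 h incubation, inhibition taken as SEAP signal drop from agonist plus DMSO wells toward a known inhibitor control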
Condition Parameters: read-out: TLR9 IC50, HEK-Blue cells overexpressing human TLR9, ODN2006 5 nM
Quantity: IC50 (nM)

>  <Compound>
Cc1cc(-c2[nH]c3ccc(C4CCN(Cc5ccon5)CC4)cc3c2C(C)C)cc(C)n1

>  <IC50 / nM>
646

$$$$

[A] CNCCC(=O)N1CCC(c2ccc3[nH]c(-c4ccnc(C)c4)c(C(C)C)c3c2)CC1
[B] Cc1cc(-c2[nH]c3ccc(C4CCN(Cc5ncco5)CC4)cc3c2C(C)C)cc(C)n1
Q. Hey, which is lower on measured IC50, A or B ? Pick one; state its label.
A. A
(A: 971 nM, B: 2930 nM)
